tested on: Staphylococcus sp.; experiment: In vitro antibacterial evaluation: minimum inhibitory concentration (MIC), broth dilution method; assay type: cell-based; conditions: strain GC 3051; broth dilution, 18 hours at 35° C.
Known MIC Staphylococcus aureus (GC 3051) of a selection of molecules
Please reply with the bare figure in µg/mL and do not write the unit itself.

| molecule | test-result |
| --- | --- |
| CCCCOC(=O)CCC1OCC2OC(OC3C(CO)OC(Oc4ccc(CC5NC(=O)C(C(C)c6ccccc6)NC(=O)CNC(=O)C(CO)NC(=O)C(C(O)C6CNC(=N)N6C6OC(CO)C(O)C(O)C6O)NC(=O)C(C(O)C6CNC(=N)N6)NC5=O)cc4)C(O)C3O)C(O)C(O)C2O1 (stereo not shown) [Example 114] | 2 |
| CC(c1ccccc1)C1NC(=O)CNC(=O)C(CO)NC(=O)C(C(O)C2CNC(=N)N2C2OC(CO)C(O)C(O)C2O)NC(=O)C(C(O)C2CNC(=N)N2)NC(=O)C(Cc2ccc(OC3OC(CO)C(OC4OC5COC(c6cccc(O)c6)OC5C(O)C4O)C(O)C3O)cc2)NC1=O (stereo not shown) [Example 136] | 16 |
| CC(c1ccccc1)C1NC(=O)CNC(=O)C(CO)NC(=O)C(C(O)C2CNC(=N)N2C2OC(CO)C(O)C(O)C2O)NC(=O)C(C(O)C2CNC(=N)N2)NC(=O)C(Cc2ccc(OC3OC(CO)C(OC4OC5COC(c6ccc(S(C)(=O)=O)cc6)OC5C(O)C4O)C(O)C3O)cc2)NC1=O (stereo not shown) [Example 157] | 16 |

Then there is this molecule:
Qu. Look at this molecule and give its reported MIC Staphylococcus aureus (GC 3051). Cc1cccc(C2OCC3OC(OC4C(CO)OC(Oc5ccc(CC6NC(=O)C(C(C)c7ccccc7)NC(=O)CNC(=O)C(CO)NC(=O)C(C(O)C7CNC(=N)N7C7OC(CO)C(O)C(O)C7O)NC(=O)C(C(O)C7CNC(=N)N7)NC6=O)cc5)C(O)C4O)C(O)C(O)C3O2)c1 (stereo not shown) [Example 135]
Ans. 1

###

tested on: Staphylococcus sp.; experiment: In vitro antibacterial evaluation: minimum inhibitory concentration (MIC), broth dilution method; assay type: cell-based; conditions: strain GC 3051
recorded-endpoint: MIC Staphylococcus aureus (GC 3051) (mg/L)
Express it in mg/L; write the number only.

Qu. Requested read-out: MIC Staphylococcus aureus (GC 3051). Entry: CC(c1ccccc1)C1NC(=O)CNC(=O)C(CO)NC(=O)C(C(O)C2CNC(=N)N2C2OC(CO)C(O)C(O)C2O)NC(=O)C(C(O)C2CNC(=N)N2)NC(=O)C(Cc2ccc(OC3OC(CO)C(OC4OC5COC6(CCCCC6C)OC5C(O)C4O)C(O)C3O)cc2)NC1=O (centres unmarked)
Ans. 4

###

system: Staphylococcus sp.; experiment: In vitro antibacterial evaluation: minimum inhibitory concentration (MIC), broth dilution method; format: cell-based; conditions: Staphylococcus aureus (GC 3051); 18 hours at 35° C.
Reported MIC Staphylococcus aureus (GC 3051) values are given for each entry in this list.
Provide only the numeric value, understood in µg/mL.

Take a look at these entries with their results.
| compound | recorded-endpoint | test-result |
| --- | --- | --- |
| COc1ccc(COC2C(CO)OC(OC3C(CO)OC(Oc4ccc(CC5NC(=O)C(C(C)c6ccccc6)NC(=O)CNC(=O)C(CO)NC(=O)C(C(O)C6CNC(=N)N6C6OC(CO)C(O)C(O)C6O)NC(=O)C(C(O)C6CNC(=N)N6)NC5=O)cc4)C(O)C3O)C(O)C2O)cc1OCc1ccccc1 (stereo not shown) [Example 239a] | MIC Staphylococcus aureus (GC 3051) | 2 |
| CC(C)CC(=O)OCC1OC(OC2C(CO)OC(Oc3ccc(CC4NC(=O)C(Cc5ccccc5)NC(=O)CNC(=O)C(CO)NC(=O)C(C(O)C5CNC(=N)N5C5OC(CO)C(O)C(O)C5O)NC(=O)C(C(O)C5CNC(=N)N5)NC4=O)cc3)C(O)C2O)C(O)C(O)C1O (stereo not shown) [Example 283c] | MIC Staphylococcus aureus (GC 3051) | 32 |

// switching to the query compound
Qu. Reported MIC Staphylococcus aureus (GC 3051) for CCC(C)C(=O)OC1C(CO)OC(OC2C(CO)OC(Oc3ccc(CC4NC(=O)C(C(C)c5ccccc5)NC(=O)CNC(=O)C(CO)NC(=O)C(C(O)C5CNC(=N)N5C5OC(CO)C(O)C(O)C5O)NC(=O)C(C(O)C5CNC(=N)N5)NC4=O)cc3)C(O)C2O)C(O)C1O (stereo not shown) [Example 278c] : what is it?
Ans. 2
